- test: Solubility studies of the activators (saturated solution in isohexane or methylcyclohexane)
- Assay type: physicochemical
- assay-conditions: methylcyclohexane
measured-endpoint: Solubility limit in MeCy (wt % at 25° C.) (wt %)

Some solved entries appear below for comparison.
| compound | readout-value |
| --- | --- |
| CCCCCCCCCCCCCCCCCC[NH+](CCCCCCCCCCCCCCCCCC)c1ccc(C)cc1.Fc1c(F)c(F)c([B-](c2c(F)c(F)c(F)c(F)c2F)(c2c(F)c(F)c(F)c(F)c2F)c2c(F)c(F)c(F)c(F)c2F)c(F)c1F [DOdTH-BF20] | 19 |
| CCCCCCCCCC[NH+](C)c1ccccc1.Fc1c(F)c(F)c2c(F)c([B-](c3c(F)c(F)c4c(F)c(F)c(F)c(F)c4c3F)(c3c(F)c(F)c4c(F)c(F)c(F)c(F)c4c3F)c3c(F)c(F)c4c(F)c(F)c(F)c(F)c4c3F)c(F)c(F)c2c1F [MDAH-BF28, N-decyl-N-methylanilinium-BF28] | 0.21 |

1: CCCCCCCCCC[NH+](CCCCCCCCCC)c1ccc(C)cc1.Fc1c(F)c(F)c([B-](c2c(F)c(F)c(F)c(F)c2F)(c2c(F)c(F)c(F)c(F)c2F)c2c(F)c(F)c(F)c(F)c2F)c(F)c1F [DDTH-BF20, N,N-didecyl-4-methylanilinium-BF20]
2: CCCCCCCCCCCCCCCCCCc1ccc([NH+](C)C)cc1.Fc1c(F)c(F)c([B-](c2c(F)c(F)c(F)c(F)c2F)(c2c(F)c(F)c(F)c(F)c2F)c2c(F)c(F)c(F)c(F)c2F)c(F)c1F [OdDMAH-BF20]
Ask: Decide: 1 or 2 , by lowest recorded Solubility limit in MeCy (wt % at 25° C.). Write the label of whichever entry you select.
Reply: 1
